- SYSTEM UNDER TEST: Rac GTPase-activating protein 1 (Homo sapiens, UniProt Q9H0H5)
- Sequence (Q9H0H5 whole entry): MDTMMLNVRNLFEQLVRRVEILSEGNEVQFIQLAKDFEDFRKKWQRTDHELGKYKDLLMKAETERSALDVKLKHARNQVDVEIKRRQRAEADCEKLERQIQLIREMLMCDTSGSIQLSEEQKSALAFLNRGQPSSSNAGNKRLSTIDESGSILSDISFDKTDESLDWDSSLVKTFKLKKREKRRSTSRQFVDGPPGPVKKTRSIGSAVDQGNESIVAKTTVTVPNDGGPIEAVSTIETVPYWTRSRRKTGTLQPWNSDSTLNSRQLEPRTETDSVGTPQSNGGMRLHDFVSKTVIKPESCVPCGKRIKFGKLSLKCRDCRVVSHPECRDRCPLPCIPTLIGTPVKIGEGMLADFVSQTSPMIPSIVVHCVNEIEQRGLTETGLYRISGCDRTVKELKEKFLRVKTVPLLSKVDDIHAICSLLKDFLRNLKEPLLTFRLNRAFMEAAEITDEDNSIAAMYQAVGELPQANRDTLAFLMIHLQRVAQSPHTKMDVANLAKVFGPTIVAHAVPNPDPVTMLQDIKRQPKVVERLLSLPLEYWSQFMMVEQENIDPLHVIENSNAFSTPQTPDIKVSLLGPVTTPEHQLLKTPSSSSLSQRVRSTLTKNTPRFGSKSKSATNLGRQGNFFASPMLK
- TEST METHOD NOTES: MgcRacGAP GTPase-activating activity inhibitors, confirmation, biochemical, ADP Hunter fluorescence, primary and confirmatory (AID 624330)
- Format: functional
Active and inactive are the calls of the source. How the calls were made is not given here.
ASSAY READOUT: IC50

Here's what some known entries look like.
COMPOUND	SYSTEM UNDER TEST	VALUE OBSERVED
COc1cc(/C=C2\SC(Nc3ccccc3)=NC2=O)cc(Cl)c1O	Rac GTPase-activating protein 1 (Homo sapiens, UniProt Q9H0H5)	55.7 µM (active)
CC(=O)C1=C(S(=O)(=O)c2ccc(C)cc2)CS(=O)(=O)C1	Rac GTPase-activating protein 1 (Homo sapiens, UniProt Q9H0H5)	34.3 µM (active)
O=C1CC(c2ccccc2)CC(O)=C1/C=N/c1ccc(O)cc1 (centres undefined)	Rac GTPase-activating protein 1 (Homo sapiens, UniProt Q9H0H5)	26 µM (active)

What is its IC50 for Rac GTPase-activating protein 1 (Homo sapiens, UniProt Q9H0H5)? Entry: COc1ccccc1CNCCc1cccc(Cl)c1
135 µM (active)
